target: BRAF^WT (MEK1^SASA:BRAF^WT:14-3-3 dimer complex) (Homo sapiens, UniProt P15056)
Construct: His6 (N); made in house; host or cells: SF9 insect cells (baculovirus)
Sequence (P15056 419-766, one chain of several): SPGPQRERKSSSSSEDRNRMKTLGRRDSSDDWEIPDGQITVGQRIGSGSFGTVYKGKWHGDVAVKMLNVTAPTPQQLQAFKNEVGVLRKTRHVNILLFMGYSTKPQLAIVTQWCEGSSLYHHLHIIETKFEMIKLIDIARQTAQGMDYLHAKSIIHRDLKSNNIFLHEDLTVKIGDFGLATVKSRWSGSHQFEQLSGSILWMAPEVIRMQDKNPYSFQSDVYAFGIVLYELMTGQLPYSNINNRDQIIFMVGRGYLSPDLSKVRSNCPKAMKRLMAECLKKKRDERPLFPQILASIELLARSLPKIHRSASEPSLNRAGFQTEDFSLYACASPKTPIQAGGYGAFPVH
assay-method-text: biochemical
Format: biochemical
condition-parameters: IC50 of BRAF^WT at 1000 μM ATP, 1000 μM ATP

>  <smiles-entry>
O=C(c1c(F)ccc(NS(=O)(=O)N2CC[C@@H](F)C2)c1F)c1c[nH]c2ncc(-c3cnc(C4CC4)nc3)cc12

>  <IC50 (nM)>
259

$$$$
>  <smiles-entry>
Cc1ccc2c(Nc3cccc(Cl)c3F)nccc2c1NC(=O)c1csc2c(N)ncnc12

>  <IC50 (nM)>
29.3

$$$$
>  <smiles-entry>
Cc1ccc(NC(=O)c2ccnc(C(F)(F)F)c2)cc1-c1cc(OCCO)nc(N2CCOCC2)c1

>  <IC50 (nM)>
54.9

$$$$

----------
target: ARAF^SSDD (MEK1^SASA:ARAF^SSDD-14-3-3ε dimer complex) (Homo sapiens, UniProt P10398, G300S/Y301D/Y302D)
Construct: ARAF^274-606, G300S, Y301/302D-14-3-3 ε with N-terminal His6 and StrepII tags; His6 (N); StrepII (N)
Sequence (P10398 274-606 G300S/Y301D/Y302D, one chain of several): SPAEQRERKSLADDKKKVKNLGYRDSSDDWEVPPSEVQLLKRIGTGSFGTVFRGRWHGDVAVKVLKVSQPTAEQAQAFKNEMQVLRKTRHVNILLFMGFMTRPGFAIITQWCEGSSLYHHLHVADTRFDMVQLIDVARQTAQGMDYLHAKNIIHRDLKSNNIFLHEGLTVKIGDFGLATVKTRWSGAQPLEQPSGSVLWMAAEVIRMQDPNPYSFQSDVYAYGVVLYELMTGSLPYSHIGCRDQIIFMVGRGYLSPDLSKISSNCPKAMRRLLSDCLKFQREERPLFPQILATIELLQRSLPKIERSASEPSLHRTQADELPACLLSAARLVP
assay-method-text: TR-FRET kinase inhibition assay (phosphorylation of biotinylated MEK1), ARAF dimer complex
condition-parameters: 10 nM enzyme, 250 nM MEK1, 200 μM ATP, 40 min preincubation, 30 min reaction
pIC50: −log10 of the molar value.
We use 7 as the dividing line for pIC50: on or above the line is t, below is f.

>  <molecule>
O=C(c1c(F)ccc(NS(=O)(=O)N2CC[C@@H](F)C2)c1F)c1c[nH]c2ncc(-c3cnc(C4CC4)nc3)cc12 [PLX8394]

>  <label-value>
t

$$$$
>  <molecule>
Cc1ccc(NC(=O)c2cccc(C(C)(C)C#N)c2)cc1Nc1ccc2ncn(C)c(=O)c2c1 [AZ628]

>  <label-value>
t

$$$$
>  <molecule>
CCN(C)S(=O)(=O)Nc1ccc(F)c(C(=O)c2c[nH]c3ncc(-c4cnc(C5CC5)nc4)cc23)c1F [PLX7904]

>  <label-value>
f

$$$$
>  <molecule>
CN(C)CCOc1ccc(-c2nc(-c3ccncc3)c(-c3ccc4c(c3)CC/C4=N\O)[nH]2)cc1 [SB590885]

>  <label-value>
t

$$$$
>  <molecule>
CCCS(=O)(=O)Nc1ccc(F)c(C(=O)c2c[nH]c3ncc(-c4ccc(Cl)cc4)cc23)c1F [Vemurafenib]

>  <label-value>
t

$$$$
>  <molecule>
CCCS(=O)(=O)Nc1ccc(F)c(C(=O)c2c[nH]c3ncc(Cl)cc23)c1F [PLX4720]

>  <label-value>
f

$$$$
>  <molecule>
C[C@@H](NC(=O)c1ncnc(N)c1Cl)c1ncc(C(=O)Nc2cc(C(F)(F)F)c(Cl)cn2)s1 [Tovorafenib]

>  <label-value>
f

$$$$

----------
target: BRAF^WT (MEK1^SASA:BRAF^WT:14-3-3 dimer complex) (Homo sapiens, UniProt P15056)
Construct: His6 (N); made in house; host or cells: SF9 insect cells (baculovirus)
assay-method-text: biochemical
Format: biochemical
condition-parameters: read-out: IC50 of BRAF^WT at 1000 μM ATP; 1000 μM ATP

>  <compound>
CCN(C)S(=O)(=O)Nc1ccc(F)c(C(=O)c2c[nH]c3ncc(-c4cnc(C5CC5)nc4)cc23)c1F [PLX7904]

>  <IC50>
> 10 µM

$$$$

----------
target: BRAF^WT (MEK1^SASA:BRAF^WT:14-3-3 dimer complex) (Homo sapiens)
Construct: His6 (N); made in house; host or cells: SF9 insect cells (baculovirus)
assay-method-text: biochemical
Type: biochemical
condition-parameters: IC50 of BRAF^WT at 100 μM ATP, 100 μM ATP
pIC50: −log10 of the molar value.
// pIC50 lookup, one value per entry

>  <compound>
O=C(c1c(F)ccc(NS(=O)(=O)N2CC[C@@H](F)C2)c1F)c1c[nH]c2ncc(-c3cnc(C4CC4)nc3)cc12 [PLX8394]

>  <target>
BRAF^WT (MEK1^SASA:BRAF^WT:14-3-3 dimer complex) (Homo sapiens)

>  <pIC50>
7.41

$$$$
>  <compound>
Cc1ccc2c(Nc3cccc(Cl)c3F)nccc2c1NC(=O)c1csc2c(N)ncnc12 [Belvarafenib]

>  <target>
BRAF^WT (MEK1^SASA:BRAF^WT:14-3-3 dimer complex) (Homo sapiens)

>  <pIC50>
7.67

$$$$

----------
target: BRAF^WT (MEK1^SASA:BRAF^WT:14-3-3 dimer complex) (Homo sapiens)
Construct: His6 (N); made in house; host or cells: SF9 insect cells (baculovirus)
assay-method-text: biochemical
Type: biochemical
condition-parameters: four-parameter fit; 200 μM ATP
We use -1 as the dividing line for BRAF^WT nH (Hill slope): on or above the line is rule met, below is rule not met.

>  <smiles-entry>
CCN(C)S(=O)(=O)Nc1ccc(F)c(C(=O)c2c[nH]c3ncc(-c4cnc(C5CC5)nc4)cc23)c1F

>  <label-value>
rule met

$$$$
>  <smiles-entry>
Cc1ccc(C(=O)Nc2ccc(CN3CCN(C)CC3)c(C(F)(F)F)c2)cc1C#Cc1cnc2cccnn12

>  <label-value>
rule not met

$$$$
>  <smiles-entry>
Cc1ccc(NC(=O)c2cccc(C(C)(C)C#N)c2)cc1Nc1ccc2ncn(C)c(=O)c2c1

>  <label-value>
rule not met

$$$$
>  <smiles-entry>
Cc1ccc2c(Nc3cccc(Cl)c3F)nccc2c1NC(=O)c1csc2c(N)ncnc12

>  <label-value>
rule not met

$$$$
>  <smiles-entry>
O=C(c1c(F)ccc(NS(=O)(=O)N2CC[C@@H](F)C2)c1F)c1c[nH]c2ncc(-c3cnc(C4CC4)nc3)cc12

>  <label-value>
rule met

$$$$
>  <smiles-entry>
CCCS(=O)(=O)Nc1ccc(F)c(C(=O)c2c[nH]c3ncc(-c4ccc(Cl)cc4)cc23)c1F

>  <label-value>
rule met

$$$$
>  <smiles-entry>
CC(C)(C)c1nc(-c2cccc(NS(=O)(=O)c3c(F)cccc3F)c2F)c(-c2ccnc(N)n2)s1

>  <label-value>
rule not met

$$$$
>  <smiles-entry>
Cc1ccc(NC(=O)c2ccnc(C(F)(F)F)c2)cc1-c1cc(OCCO)nc(N2CCOCC2)c1

>  <label-value>
rule not met

$$$$
>  <smiles-entry>
CNc1ncc2cc(-c3cc(NC(=O)NCCC(C)(C)C)c(F)cc3C)c(C)nc2n1

>  <label-value>
rule not met

$$$$

----------
target: CRAF^SSDD (MEK1^SASA:CRAF^SSDD:14-3-3 dimer complex) (Homo sapiens, UniProt P04049, Y340D/Y341D)
Construct: His6 (N); StrepII (N); made in house; host or cells: insect cells (baculovirus)
Sequence (P04049 308-648 Y340D/Y341D): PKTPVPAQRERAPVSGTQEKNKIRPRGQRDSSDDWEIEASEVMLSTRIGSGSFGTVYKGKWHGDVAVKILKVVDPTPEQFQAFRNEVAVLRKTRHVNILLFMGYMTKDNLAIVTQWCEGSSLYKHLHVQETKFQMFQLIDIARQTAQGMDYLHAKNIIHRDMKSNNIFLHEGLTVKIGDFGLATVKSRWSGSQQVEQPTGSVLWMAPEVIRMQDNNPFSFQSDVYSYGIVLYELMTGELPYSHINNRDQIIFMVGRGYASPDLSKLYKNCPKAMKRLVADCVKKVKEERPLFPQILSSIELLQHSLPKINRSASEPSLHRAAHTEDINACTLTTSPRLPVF
Sequence (Q02750 whole entry S218A/S222A partner): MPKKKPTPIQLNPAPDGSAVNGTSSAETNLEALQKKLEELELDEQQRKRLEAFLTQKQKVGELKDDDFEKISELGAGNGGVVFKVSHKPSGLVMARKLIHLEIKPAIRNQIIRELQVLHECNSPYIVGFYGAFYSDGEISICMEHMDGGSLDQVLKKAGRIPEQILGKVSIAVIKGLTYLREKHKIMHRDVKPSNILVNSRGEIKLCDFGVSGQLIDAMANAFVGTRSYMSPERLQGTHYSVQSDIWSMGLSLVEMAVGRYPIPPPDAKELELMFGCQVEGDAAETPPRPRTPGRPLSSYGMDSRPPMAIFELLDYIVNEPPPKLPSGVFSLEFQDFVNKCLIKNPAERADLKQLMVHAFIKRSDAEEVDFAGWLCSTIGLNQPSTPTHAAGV
assay-method-text: TR-FRET kinase inhibition assay (phosphorylation of biotinylated MEK1), CRAF SSDD dimer complex
Assay type: biochemical
condition-parameters: CRAF^SSDD IC50, 1 nM enzyme, 250 nM MEK1, 200 μM ATP, 40 min preincubation, 30 min reaction
measurement-label: IC50 (nM)

>  <compound>
CN(C)CCOc1ccc(-c2nc(-c3ccncc3)c(-c3ccc4c(c3)CC/C4=N\O)[nH]2)cc1 [SB590885]

>  <val>
2.5

$$$$

----------
target: BRAF^WT (Homo sapiens, UniProt P15056)
pKi: −log10 of the molar value.
measurement-label: pKi

>  <smiles-entry>
Nc1ncnc2c1ncn2[C@@H]1O[C@H](COP(=O)(O)OP(=O)(O)OP(=O)(O)O)[C@@H](O)[C@H]1O

>  <target>
BRAF^WT (Homo sapiens, UniProt P15056)

>  <measurement-label>
pKi

>  <val>
2.32

$$$$

----------
target: BRAF^WT (MEK1^SASA:BRAF^WT:14-3-3 dimer complex) (Homo sapiens, UniProt P15056)
Construct: His6 (N); made in house; host or cells: SF9 insect cells (baculovirus)
assay-method-text: biochemical
Format: biochemical
condition-parameters: read-out: IC50 of BRAF^WT at 100 μM ATP; 100 μM ATP
pIC50: −log10 of the molar value.

>  <compound>
Cc1ccc(NC(=O)c2ccnc(C(F)(F)F)c2)cc1-c1cc(OCCO)nc(N2CCOCC2)c1 [Naporafenib]

>  <target>
BRAF^WT (MEK1^SASA:BRAF^WT:14-3-3 dimer complex) (Homo sapiens, UniProt P15056)

>  <relation-qualifier>
=

>  <pIC50>
7.42

$$$$
>  <compound>
CCN(C)S(=O)(=O)Nc1ccc(F)c(C(=O)c2c[nH]c3ncc(-c4cnc(C5CC5)nc4)cc23)c1F [PLX7904]

>  <target>
BRAF^WT (MEK1^SASA:BRAF^WT:14-3-3 dimer complex) (Homo sapiens, UniProt P15056)

>  <relation-qualifier>
<

>  <pIC50>
6.00

$$$$

----------
target: BRAF^V600E (Homo sapiens, UniProt P15056, V600E)
Sequence (P15056 445-723 V600E, one chain of several): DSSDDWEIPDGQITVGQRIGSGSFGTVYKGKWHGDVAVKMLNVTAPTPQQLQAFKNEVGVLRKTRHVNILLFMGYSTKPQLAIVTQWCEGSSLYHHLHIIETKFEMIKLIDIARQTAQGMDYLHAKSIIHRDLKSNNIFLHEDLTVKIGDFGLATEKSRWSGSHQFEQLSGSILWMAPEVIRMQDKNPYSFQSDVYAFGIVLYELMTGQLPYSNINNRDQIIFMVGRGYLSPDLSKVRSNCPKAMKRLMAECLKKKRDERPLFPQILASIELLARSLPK
assay-method-text: ATP and MEK titrations by TR-FRET (Michaelis constants, substrate inhibition)
condition-parameters: read-out: Ki-ATP, BRAF^V600E; apparent Ki of substrate inhibition by ATP
measurement-label: Ki (mM)

>  <molecule>
Nc1ncnc2c1ncn2[C@@H]1O[C@H](COP(=O)(O)OP(=O)(O)OP(=O)(O)O)[C@@H](O)[C@H]1O [ATP]

>  <unit-of-measurement>
mM

>  <val>
6.34

$$$$
